system: COLO 205 colon; assay: NCI-60 one-dose screen, 48 h; details: 10 µM unless noted
About 83,000 compounds went through this panel and 20% of them were active in at least one assay; those are over-represented in the sample as a whole. Activity calls are given as the source filed them. The calls were made as follows: active = growth percent below 10; inactive = the rest.
Response enum: true (active), false (inactive)

Worked set:
COMPOUND	GROUP
Cc1cccc(Nc2nc3ccccc3nc2/C=C/c2ccc(F)cc2)c1	false
COc1ccc(C(=O)/C=C/c2ccc(Cl)c(Cl)c2)cc1S(N)(=O)=O	true
Cn1cc(-c2cc3nc(-c4cn(C)c5ncc(Br)cc45)cc(N)n3n2)c2cc(Cl)ccc21	true
COc1ccc(N2N=C(c3ccc4c(c3)OCO4)CC2c2cccc(NC(=O)CCCNS(=O)(=O)c3ccc(F)cc3)c2)cc1 (centres undefined)	false
O=C(Cn1c(/C=C/c2cccc([N+](=O)[O-])c2)nc2ccccc2c1=O)Nc1ccccc1	false

Then there is this compound:
INPUT: What is the recorded call for this compound in the test? N#Cc1c(-c2ccc(Br)cc2)nc2n[nH]c(-c3ccc(Br)cc3)c2c1-c1ccc(F)cc1
OUTPUT: false

---

tested on: OVCAR-8 ovarian; assay: NCI-60 one-dose screen, 48 h (100 = growth as untreated, 0 = no growth, -100 = all killed); conditions: 10 µM unless noted
Compounds without any hit were thinned out: in the full panel of roughly 83,000, 20% have a hit.
Known growth of a selection of molecules
Express your answer in %, writing the number without its unit.

For orientation, consider the following solved cases.
In [3]: df
Out[3]:
                                   molecule      test_target  readout_name  units  obs_value
0  COc1ccc(C(=O)/C=C/c2cccc(Br)c2)cc1S(N)(=O)=O  OVCAR-8 ovarian        growth      %      -95.1
1  CC(=O)Nc1cccc(Nc2nccc(N[C@@H](C)c3ccccc3)n2)c1  OVCAR-8 ovarian        growth      %        9.3
2  CC(/C=C1\SC(=S)N(CCCC(=O)NC(CC(C)C)C(=O)O)C1=O)=C\c1ccccc1 (stereo not given)  OVCAR-8 ovarian        growth      %       87.5
3  COc1ccc(C(=O)/C=C/c2ccc3ccccc3c2)cc1S(N)(=O)=O  OVCAR-8 ovarian        growth      %      -60.6

Now turn to the next molecule.
INPUT: growth lookup needed for COc1cc(-c2ccc(/C=N/NC(=O)c3[nH]c4ccc(Br)cc4c3-c3ccccc3)s2)cc(OC)c1OC , thanks.
OUTPUT: 80.7

---

test system: SNB-75 CNS; assay: NCI-60 one-dose screen, 48 h (100 = growth as untreated, 0 = no growth, -100 = all killed); settings: 10 µM unless noted
About 83,000 compounds went through this panel and 20% of them were active in at least one assay; those are over-represented in the sample as a whole.
Binary call on growth: 1 from 90% upward, 0 beneath that.

>>> print(df.to_string())
                                chem_smiles  test_target  group
0  CCCCSc1nc(Nc2ccc(C(C)=O)cc2)c(C#N)c(-c2ccc(OC)cc2)n1   SNB-75 CNS      1
1  Cc1cc2nc3c([nH]c2cc1C)c1ccc(=O)cc1n3CCN(C)C   SNB-75 CNS      0
2  N#Cc1c(-c2ccc(Br)cc2)nc2n[nH]c(-c3ccc(Br)cc3)c2c1-c1ccc(C(F)(F)F)cc1   SNB-75 CNS      0

Then there is this molecule:
INPUT: Does CN(C)CCn1c2ccccc2c2nc3cc(C(F)(F)F)ccc3nc21 have a reported growth of at least 90%?
OUTPUT: 0

---

Known growth of a selection of compounds
test system: MDA-MB-468 breast; test: NCI-60 one-dose screen, 48 h (100 = growth as untreated, 0 = no growth, -100 = all killed); settings: 10 µM unless noted
This is part of a sample that, as a whole, favours compounds with a hit. Of some 83,000 tested, about 20% had one in any assay. Calls of active or inactive are those of the source. The calls were made as follows: active = growth percent below 10; inactive = the rest.

INPUT: growth lookup needed for CCCSc1nc(NCCc2c[nH]c3ccccc23)c(C#N)c(-c2ccccc2)n1 , thanks.
OUTPUT: 53.8% (inactive)

---

test system: OVCAR-3 ovarian; assay: NCI-60 one-dose screen, 48 h (100 = growth as untreated, 0 = no growth, -100 = all killed); conditions: 10 µM unless noted
This is part of a sample that, as a whole, favours compounds with a hit. Of some 83,000 tested, about 20% had one in any assay.
Response field label takes Condition met when growth is strictly below 70% and Condition not met in all other cases.

In [3]: df
Out[3]:
                                   compound              group
0  CCOC(=O)c1ccc(Nc2nc(NN)nc(-c3ccc(F)cc3)c2C#N)cc1  Condition not met
1  Clc1cccc(Cl)c1/C=C/c1cc(/C=C/c2ccc(Br)cc2)c2ccccc2n1  Condition not met
2  Cn1cc(-c2cc3nc(-c4cn(C)c5ncc(Br)cc45)cc(N)n3n2)c2cc(Cl)ccc21      Condition met
3  Cc1ccc(C2CC(c3ccc(S(=O)(=O)NCCNc4nc(Nc5ccc(F)cc5)nc(N(C)C)n4)cc3)=Nc3c(N)nc(N)nc3N2)cc1 (centres undefined)      Condition met
4  CCCSc1nc(NCCc2c[nH]c3ccccc23)c(C#N)c(-c2ccc(OC)cc2)n1  Condition not met
5  C=C1CC[C@@H]2[C@]3(C)COC(c4cn[nH]c4-c4ccccc4)O[C@@H]3CC[C@@]2(C)[C@@H]1C/C=C1/C(=O)OCC1O (some centres undefined)      Condition met
6  O=C1NC(=O)c2c1c1c3cc(Br)ccc3[nH]c1c1oc3ccc(F)cc3c21      Condition met
7  CC(=O)c1cccc(NC(=O)CCC(=O)NS(=O)(=O)c2ccc(C)cc2)c1  Condition not met

INPUT: Take the compound O=C(Cn1c(/C=C/c2ccccc2)nc2ccccc2c1=O)Nc1ccc(Cl)cc1 and say whether its growth is less than 70%.
OUTPUT: Condition met

---

test system: MCF7 breast; experiment: NCI-60 one-dose screen, 48 h (100 = growth as untreated, 0 = no growth, -100 = all killed); details: 10 µM unless noted
The panel holds about 83,000 compounds, 20% with a hit somewhere; the sample as a whole holds those more often.
Binary call on growth: criterion met from 20% upward, criterion not met beneath that.

INPUT: Does N#Cc1c(-c2ccc(Cl)cc2)nc2n[nH]c(-c3ccc(Cl)cc3)c2c1-c1cccs1 have a reported growth of at least 20%?
OUTPUT: criterion met

INPUT: Does COc1cc(CNC(=O)/C=C/c2ccc3c(c2)OCO3)ccc1OCc1cn(-c2cccc(C(F)(F)F)c2)nn1 have a reported growth of at least 20%?
OUTPUT: criterion not met

INPUT: Does CCCCc1c(Nn2cnnn2)no[n+]1[O-] have a reported growth of at least 20%?
OUTPUT: criterion met

---

tested on: NCI-H226 lung; assay: NCI-60 one-dose screen, 48 h (100 = growth as untreated, 0 = no growth, -100 = all killed); settings: 10 µM unless noted
This is part of a sample that, as a whole, favours compounds with a hit. Of some 83,000 tested, about 20% had one in any assay. Active and inactive are the calls of the source. Rule for the calls: active = growth percent below 10; inactive = the rest.
READOUT_NAME: growth

For orientation, consider the following solved cases.
COMPOUND	OBS_VALUE
CC12CC[C@@H]3[C@]4(C)COC(c5cn[nH]c5-c5ccc(Br)cc5)O[C@@H]4CC[C@@]3(C)[C@@H]1CC(C1=CCOC1=O)O2 (stereo not given in full)	59.7% (inactive)
N#Cc1c(-c2ccccc2Cl)cc(-c2c[nH]c3ccccc23)[nH]c1=O	64.3% (inactive)
CC1(C)CC[C@]2(C(=O)Nc3ccccc3)CC[C@]3(C)C(=CCC4[C@@]5(C)C[C@@H](O)[C@H](O)[C@@](C)(CO)C5CC[C@]43C)C2C1 (stereo not given in full)	54.3% (inactive)
CN1C(=O)/C(=C/c2ccc(C(=O)Nc3ncc(Cc4ccc(Cl)cc4Cl)s3)cc2)SC1=S	51.8% (inactive)

Now turn to the next compound.
INPUT: growth of CCOP(=O)(OCCCl)c1nc(-c2ccc(C)cc2)oc1NCc1ccccc1 (stereo not given) on NCI-H226 lung?
OUTPUT: 88% (inactive)

---

system: DU-145 prostate; assay: NCI-60 one-dose screen, 48 h (100 = growth as untreated, 0 = no growth, -100 = all killed); details: 10 µM unless noted
Compounds without any hit were thinned out: in the full panel of roughly 83,000, 20% have a hit.
Known growth of a selection of molecules
Express your answer in %, writing the number without its unit.

For orientation, consider the following solved cases.
MOLECULE	OBS_VALUE
O=C(CCN1C(=O)/C(=C/c2ccc(F)cc2)SC1=S)N1CCOCC1	35.8
CSc1ccccc1NC(=O)c1ccc2nn(/C(C#N)=C/c3ccccn3)nc2c1	-99.5
COc1ccc2c(c1)c(-c1cc(N)n3nc(-c4cn(C)c5ccccc45)cc3n1)cn2C	-58
COc1ccc(-c2nnc3ccc(N/N=C/c4ccc(C)cc4)nn23)cc1	39.1
C#CCOc1ccc(/C=N/Nc2nc(-c3ccc(Cl)cc3)cs2)cc1OC	81.5

INPUT: growth lookup needed for C=CC(=O)Nc1ccc(C)c(Oc2ccc(Cl)cc2)c1 , thanks.
OUTPUT: 68.6

INPUT: growth lookup needed for CCCCc1c(Nn2cnnn2)no[n+]1[O-] , thanks.
OUTPUT: 56.2

INPUT: growth lookup needed for CC(C)CSc1nc(NCCc2c[nH]c3ccccc23)c(C#N)c(-c2ccc(F)cc2)n1 , thanks.
OUTPUT: 58.6

INPUT: growth lookup needed for COc1c(F)ccc(C(=O)Nc2ccc3nc(NC(=O)C4CCCN(S(=O)(=O)C5CC5)C4)sc3c2)c1F (centres undefined) , thanks.
OUTPUT: 66.8

INPUT: growth lookup needed for O=c1[nH]n(C(=S)N/N=C/c2ccccc2Cl)c(=O)c2ccccc12 , thanks.
OUTPUT: 15.1

INPUT: growth lookup needed for CC(C)(C)OC(=O)/C=C/c1cccc2c1C(=O)NC(C)(c1cc3cc(Cl)ccc3oc1=O)N2 (centres undefined) , thanks.
OUTPUT: 61.1
